// provenance: the supplement of paper PMC8728848

# target-or-test-system: GlcA(b1-3)Gal
# assay-comment: glycan array binding signal (z-score within array); higher = stronger binding
# study-conditions: glycan notation: IUPAC condensed, linker removed
About 410 targets per protein were measured; listed, in parts, are those with the strongest signals and a random draw of the rest.
parameter-measured: glycan array binding signal (z-score)

binder	parameter-measured	observed-measurement
Fm1D (Escherichia coli) (protein) FSCNVDGGSSIGAGTTSVYVNLDPVIQPGQNLVVDLSQHISCWNDYGGWYDTDHINLVQGSAFAGSLQSYKGSLYWNNVTYPFPLTTNTNVLDIGDKTPMPLPLKLYITPVGAAGGVVIKAGEVIARIHMYKIATLGSGNPRNFTWNIISNNSVVMPTHHHHHH	glycan array binding signal (z-score)	-0.143
PA-IL (Pseudomonas aeruginosa) (protein) AWKGEVLANNEAGQVTSIIYNPGDVITIVAAGWASYGPTQKWGPQGDREHPDQGLICHDAFCGALVMKIGNSGTIPVNTGLFRWVAPNNVQGAITLIYNDVPGTYGNNSGSFSVNIGKDQS	glycan array binding signal (z-score)	-0.365
SSR2 (Sclerotium rolfsii) (protein) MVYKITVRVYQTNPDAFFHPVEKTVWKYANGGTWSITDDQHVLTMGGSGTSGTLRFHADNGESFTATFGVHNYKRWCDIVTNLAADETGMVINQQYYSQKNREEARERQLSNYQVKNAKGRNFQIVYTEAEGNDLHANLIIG	glycan array binding signal (z-score)	-0.282
